- Subject Of Test: RNA-directed RNA polymerase (Hepacivirus hominis) (UniProt O39930)
- Sequence (O39930 1-591): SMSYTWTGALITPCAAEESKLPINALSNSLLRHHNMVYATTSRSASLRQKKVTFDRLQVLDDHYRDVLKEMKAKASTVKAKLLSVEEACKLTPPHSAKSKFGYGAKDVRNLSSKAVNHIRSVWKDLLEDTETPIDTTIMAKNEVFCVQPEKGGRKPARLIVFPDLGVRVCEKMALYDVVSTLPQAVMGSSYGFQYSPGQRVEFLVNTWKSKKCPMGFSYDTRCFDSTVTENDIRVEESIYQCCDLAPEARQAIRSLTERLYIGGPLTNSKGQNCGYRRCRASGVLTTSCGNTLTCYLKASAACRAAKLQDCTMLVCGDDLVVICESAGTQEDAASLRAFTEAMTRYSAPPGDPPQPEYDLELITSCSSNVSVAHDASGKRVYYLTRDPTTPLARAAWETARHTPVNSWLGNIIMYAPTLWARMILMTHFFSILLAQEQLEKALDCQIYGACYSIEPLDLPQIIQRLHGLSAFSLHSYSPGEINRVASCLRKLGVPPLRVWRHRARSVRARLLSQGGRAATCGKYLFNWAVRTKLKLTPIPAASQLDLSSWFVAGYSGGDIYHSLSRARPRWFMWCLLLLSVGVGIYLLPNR
Endpoint Name: k off (s⁻¹)

INSERT INTO measurements (structure_string, endpoint_name, endpoint_result) VALUES
  ('COc1ccc2c(c1)C=C1Cn3c-2c(C2CCCCC2)c2ccc(cc23)C(=O)NS(=O)(=O)N(C)CCOCCN(C)C1=O', 'k off', '9e-05'),
  ('COc1ccc2c(c1)C=C1Cn3c-2c(C2CCCCC2)c2ccc(cc23)C(=O)NS(=O)(=O)N(C(C)C)CCCCN(C)C1=O', 'k off', '6.6e-05'),
  ('COc1ccc2c(c1)C=C1Cn3c-2c(C2CCCCC2)c2ccc(cc23)C(=O)NS(=O)(=O)NCCCCN(C)C1=O', 'k off', 0.00031),
  ('CN1CCCCN(C)S(=O)(=O)NC(=O)c2ccc3c(C4CCCCC4)c4n(c3c2)CC(=Cc2ccc(Cl)cc2-4)C1=O', 'k off', 0.0037),
  ('COc1ccc2c(c1)C(C)=C1Cn3c-2c(C2CCCCC2)c2ccc(cc23)C(=O)NS(=O)(=O)N(C)CCCCN(C)C1=O', 'k off', 0.00016);

---

RNA-directed RNA polymerase (Hepacivirus hominis) measurements of k off, listed per entry.
Endpoint Name: k off

INSERT INTO results (structure_string, subject_of_test, endpoint_name, endpoint_result) VALUES
  ('COc1ccc2c(c1)C=C1Cn3c-2c(C2CCCCC2)c2ccc(cc23)C(=O)NS(=O)(=O)N(C)CCCCN(C)C1=O', 'RNA-directed RNA polymerase (Hepacivirus hominis)', 'k off', '4.8e-05 s⁻¹'),
  ('COc1ccc2c(c1)C(C)=C1Cn3c-2c(C2CCCCC2)c2ccc(cc23)C(=O)NS(=O)(=O)N(C)CCOCCN(C)C1=O', 'RNA-directed RNA polymerase (Hepacivirus hominis)', 'k off', '3.6e-05 s⁻¹'),
  ('COc1ccc2c(c1)C=C1Cn3c-2c(C2CCCCC2)c2ccc(cc23)C(=O)NS(=O)(=O)N(C)CCCCNC1=O', 'RNA-directed RNA polymerase (Hepacivirus hominis)', 'k off', '4.1e-05 s⁻¹'),
  ('CN1CCCCCNC(=O)C2=Cc3ccc(Cl)cc3-c3c(C4CCCCC4)c4ccc(cc4n3C2)C(=O)NS1(=O)=O', 'RNA-directed RNA polymerase (Hepacivirus hominis)', 'k off', '0.0038 s⁻¹');
